# assay_summary: Pharmacokinetic and drug–drug interaction study in rats (plasma, UPLC–MS/MS)
# condition_label: Sprague Dawley, rat, plasma, po, 1.2 mg/kg, AUCinf, lenvatinib in rat plasma; lenvatinib 1.2 mg/kg oral co-administered with canagliflozin 10 mg/kg (VLEN+CA); n = 6; mean ± SD
result_type: AUC(0-inf) (ng·h/mL)
Numbers only here, please. The scale is ng·h/mL.

What measured AUC(0-inf) goes with COc1cc2nccc(Oc3ccc(NC(=O)NC4CC4)c(Cl)c3)c2cc1C(N)=O ?
7280

----------
# assay_summary: Pharmacokinetic and drug–drug interaction study in rats (plasma, UPLC–MS/MS)
# condition_label: Sprague Dawley, rat, plasma, po, 1.2 mg/kg, t1/2z, lenvatinib in rat plasma; oral single dose lenvatinib 1.2 mg/kg alone (IILEN); n = 6; mean ± SD
result_type: half-life
Don't forget the unit after the number, please.

What measured half-life goes with COc1cc2nccc(Oc3ccc(NC(=O)NC4CC4)c(Cl)c3)c2cc1C(N)=O ?
10.5 h

----------
# assay_summary: Pharmacokinetic and drug–drug interaction study in rats (plasma, UPLC–MS/MS)
# condition_label: Sprague Dawley, rat, plasma, po, 100 mg/kg, t1/2z, sorafenib in rat plasma; oral single dose sorafenib 100 mg/kg alone (ISOR); n = 6; mean ± SD
result_type: half-life (h)
Numbers only here, please. The scale is h.

What measured half-life goes with CNC(=O)c1cc(Oc2ccc(NC(=O)Nc3ccc(Cl)c(C(F)(F)F)c3)cc2)ccn1 [sorafenib, Sorafenib] ?
12.3

----------
# assay_summary: Pharmacokinetic and drug–drug interaction study in rats (plasma, UPLC–MS/MS)
# condition_label: Sprague Dawley, rat, plasma, po, 100 mg/kg, AUCinf, sorafenib in rat plasma; oral single dose sorafenib 100 mg/kg alone (ISOR); n = 6; mean ± SD
result_type: AUC(0-inf) (ng·h/mL)
Numbers only here, please. The scale is ng·h/mL.

What measured AUC(0-inf) goes with CNC(=O)c1cc(Oc2ccc(NC(=O)Nc3ccc(Cl)c(C(F)(F)F)c3)cc2)ccn1 [sorafenib, Sorafenib] ?
40300

----------
# assay_summary: Pharmacokinetic and drug–drug interaction study in rats (plasma, UPLC–MS/MS)
# condition_label: Sprague Dawley, rat, plasma, po, 1.2 mg/kg, Cmax, lenvatinib in rat plasma; oral single dose lenvatinib 1.2 mg/kg alone (IILEN); n = 6; mean ± SD
result_type: Cmax (ng/mL)
Numbers only here, please. The scale is ng/mL.

What measured Cmax goes with COc1cc2nccc(Oc3ccc(NC(=O)NC4CC4)c(Cl)c3)c2cc1C(N)=O [lenvatinib, Lenvatinib] ?
721

----------
# assay_summary: Pharmacokinetic and drug–drug interaction study in rats (plasma, UPLC–MS/MS)
# condition_label: Sprague Dawley, rat, plasma, po, 100 mg/kg, Vz/F, sorafenib in rat plasma; oral single dose sorafenib 100 mg/kg alone (ISOR); n = 6; mean ± SD
result_type: Vd/F
Don't forget the unit after the number, please.

What measured Vd/F goes with CNC(=O)c1cc(Oc2ccc(NC(=O)Nc3ccc(Cl)c(C(F)(F)F)c3)cc2)ccn1 ?
49 L/kg

----------
# assay_summary: Pharmacokinetic and drug–drug interaction study in rats (plasma, UPLC–MS/MS)
# condition_label: Sprague Dawley, rat, plasma, po, 100 mg/kg, Cmax, sorafenib in rat plasma; sorafenib 100 mg/kg oral co-administered with canagliflozin 10 mg/kg (IVSOR+CA); n = 6; mean ± SD
result_type: Cmax (ng/mL)
Numbers only here, please. The scale is ng/mL.

What measured Cmax goes with CNC(=O)c1cc(Oc2ccc(NC(=O)Nc3ccc(Cl)c(C(F)(F)F)c3)cc2)ccn1 ?
2200
